Molecular target: P. falciparum apicoplast DNA polymerase (Pf-apPOL) (Plasmodium falciparum)
Assay: Fluorescence-based high-throughput DNA polymerase assay (molecular beacon), primary screen and dose-response
Assay type: biochemical
Conditions: 'DNA Pol' of the 186 hits list (primary screen result); unit not given; 90 min, 10 µM
measured-metric: DNA Pol
Give the value as a plain number.

Example compounds with recorded DNA Pol:
compound	measured-metric	numeric-result
Nc1c(S(=O)(=O)O)cc(Nc2ccccc2)c2c1C(=O)c1ccccc1C2=O	DNA Pol	49
NC(=O)c1cc[n+](CC2=C(C(=O)[O-])N3C(=O)[C@@H](NC(=O)[C@@H](c4ccccc4)S(=O)(=O)[O-])[C@H]3SC2)cc1.[Na+]	DNA Pol	104
O=c1cc(CN2CCCCC2)c2cc3c(cc2o1)OCO3	DNA Pol	34
CSC1=C(C#N)C(=C(C#N)C#N)NC(c2ccccc2)=N1 [Molecule 2, CSc1nc([nH]c(=C(C#N)C#N)c1C#N)c1ccccc1]	DNA Pol	97
O=C(Nc1cccc(C(=O)Nc2ccc(S(=O)(=O)[O-])c3cc(S(=O)(=O)[O-])cc(S(=O)(=O)[O-])c23)c1)Nc1cccc(C(=O)Nc2ccc(S(=O)(=O)[O-])c3cc(S(=O)(=O)[O-])cc(S(=O)(=O)[O-])c23)c1.[Na+].[Na+].[Na+].[Na+].[Na+].[Na+]	DNA Pol	94
CCOc1ccc(/C=C2\N=C(c3cc([N+](=O)[O-])cc([N+](=O)[O-])c3)OC2=O)cc1	DNA Pol	62

// CCCCc1ccc(NC(=O)CSc2nc(O)c(C#N)c(C3CCCCC3)n2)c(C)c1 : DNA Pol value = 95

// Cc1ccc(C)c(CSc2nc(C3CCCCC3)c(C#N)c(=O)[nH]2)c1 : DNA Pol value = 98

// COc1ccc(-c2c(C(F)(F)F)nn3c(=O)cc(-c4cccc([N+](=O)[O-])c4)[nH]c23)cc1 : DNA Pol value = 98

// COCCN(CCOC)Cc1c(O)ccc2c1OC(=Cc1cc(Br)ccc1OC)C2=O : DNA Pol value = 63

====

Target: P. falciparum apicoplast DNA polymerase (Pf-apPOL) (Plasmodium falciparum, UniProt Q8ILY1)
Sequence (Q8ILY1 entry or part of it): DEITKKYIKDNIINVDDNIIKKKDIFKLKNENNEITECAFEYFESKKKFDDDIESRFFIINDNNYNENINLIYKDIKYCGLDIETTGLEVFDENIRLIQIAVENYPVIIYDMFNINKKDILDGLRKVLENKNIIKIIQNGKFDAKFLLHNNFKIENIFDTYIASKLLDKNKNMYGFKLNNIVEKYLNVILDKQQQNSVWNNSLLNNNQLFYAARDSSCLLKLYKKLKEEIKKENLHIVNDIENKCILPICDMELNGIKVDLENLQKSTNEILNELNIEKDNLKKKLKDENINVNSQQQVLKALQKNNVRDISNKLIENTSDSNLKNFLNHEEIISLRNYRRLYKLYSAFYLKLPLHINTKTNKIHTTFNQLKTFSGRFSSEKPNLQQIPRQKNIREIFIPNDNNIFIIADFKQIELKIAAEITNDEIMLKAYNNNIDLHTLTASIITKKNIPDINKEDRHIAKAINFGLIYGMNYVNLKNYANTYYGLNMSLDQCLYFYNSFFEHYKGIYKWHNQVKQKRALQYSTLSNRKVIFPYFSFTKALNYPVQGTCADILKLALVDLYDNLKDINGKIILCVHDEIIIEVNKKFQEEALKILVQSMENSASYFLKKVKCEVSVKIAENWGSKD
Test: Fluorescence-based high-throughput DNA polymerase assay (molecular beacon), primary screen and dose-response
Assay type: biochemical
Conditions: 'DNA Pol'; screening value, unit not given; 90 min, 10 µM
Catalogue of DNA Pol values
Give the value as a plain number.

>>> df
                                   molecule  numeric_result
0  O=C(O)CC1=NN(c2cccc([N+](=O)[O-])c2)C(=O)C1              37
1  CC1=NNC(=O)C1Oc1ccc(Cl)cc1Cl (stereo not shown)              75
2       CN1CC(=Cc2ccco2)C(=O)C(=Cc2ccco2)C1              69

// O=C(Nc1ncc([N+](=O)[O-])s1)c1ccc2c(c1)C(=O)N(N1C(=O)c3ccccc3C1=O)C2=O : DNA Pol value = 40

====

Target: bacteriophage T4 DNA polymerase (Enterobacteria phage T4, UniProt P04415)
Construct: made in house
Sequence (P04415 1-898): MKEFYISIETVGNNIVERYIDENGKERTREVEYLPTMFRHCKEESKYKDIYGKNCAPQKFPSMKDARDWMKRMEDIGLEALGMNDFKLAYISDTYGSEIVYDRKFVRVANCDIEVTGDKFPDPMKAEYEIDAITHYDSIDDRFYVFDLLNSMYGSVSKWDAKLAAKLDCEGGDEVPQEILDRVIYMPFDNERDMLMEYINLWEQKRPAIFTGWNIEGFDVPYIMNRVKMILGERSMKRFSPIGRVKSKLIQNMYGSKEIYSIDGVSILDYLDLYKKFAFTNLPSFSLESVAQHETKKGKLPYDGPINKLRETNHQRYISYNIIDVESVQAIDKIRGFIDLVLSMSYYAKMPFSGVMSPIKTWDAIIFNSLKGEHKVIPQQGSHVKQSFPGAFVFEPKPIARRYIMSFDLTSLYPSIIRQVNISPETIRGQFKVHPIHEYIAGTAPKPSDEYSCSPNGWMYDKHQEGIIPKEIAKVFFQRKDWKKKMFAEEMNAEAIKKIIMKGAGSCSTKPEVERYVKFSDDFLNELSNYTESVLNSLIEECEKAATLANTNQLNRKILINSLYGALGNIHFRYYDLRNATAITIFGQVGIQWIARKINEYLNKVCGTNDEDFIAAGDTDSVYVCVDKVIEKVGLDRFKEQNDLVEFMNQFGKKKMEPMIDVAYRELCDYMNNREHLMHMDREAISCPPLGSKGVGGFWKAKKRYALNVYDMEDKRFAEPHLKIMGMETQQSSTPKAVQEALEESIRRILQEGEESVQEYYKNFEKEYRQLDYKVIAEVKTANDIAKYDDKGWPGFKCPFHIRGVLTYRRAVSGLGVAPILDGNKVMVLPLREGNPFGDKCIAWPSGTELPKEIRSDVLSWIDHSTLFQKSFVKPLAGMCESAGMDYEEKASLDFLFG
Assay: Counter-screen against bacteriophage T4 DNA polymerase
Assay type: biochemical
Details: DRC-1; read at 10'; concentration 20
measured-metric: % inhibition T4 10' 20 (%)
Numeric only. Scale: %

Example compounds with recorded % inhibition T4 10' 20:
>>> print(df.to_string())
                                   compound  numeric_result
0  CC(=O)Nc1cc(C(=O)c2cccs2)nn(-c2ccc(Cl)cc2)c1=O         21.6077
1  Cc1cc2[nH]c(C(=O)Nc3ccc(F)cc3)c(CN3CCOCC3)c2s1         34.4714

Now examine the next entry.
// C#CC(C=CC)OC(=O)c1ccccc1C(=O)O (stereo not drawn) : % inhibition T4 10' 20 value = 21.3205
